Experiment: self-splicing fitness, log relative to wild type (ln ratio); higher = more splicing; Tetrahymena group I intron in knt gene, E. coli kanamycin selection, DiMSum; sequences stand for … in CUCUCU…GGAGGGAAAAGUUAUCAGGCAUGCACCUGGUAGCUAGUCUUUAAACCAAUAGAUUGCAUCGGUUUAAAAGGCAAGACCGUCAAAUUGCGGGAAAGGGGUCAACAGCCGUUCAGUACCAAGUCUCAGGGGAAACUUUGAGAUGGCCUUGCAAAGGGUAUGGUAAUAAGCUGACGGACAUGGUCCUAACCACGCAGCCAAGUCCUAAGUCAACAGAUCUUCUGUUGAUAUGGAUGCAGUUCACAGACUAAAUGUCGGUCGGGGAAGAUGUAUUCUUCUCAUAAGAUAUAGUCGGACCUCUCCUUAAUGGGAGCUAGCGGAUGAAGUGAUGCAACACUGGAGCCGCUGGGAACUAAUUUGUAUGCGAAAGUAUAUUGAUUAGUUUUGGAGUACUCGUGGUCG;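 further: selection with 25 µg/mL kanamycin versus none on LB agar overnight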
Conditions: 30 °C
Response field class: enum, chosen by comparing self-splicing fitness (ln) against I (below -3), II (-3 to below -2), III (-2 or more)

Record excerpt, results attached:
1) UAAAAGCAAUAUUACGUUAG
III
2) CAUCAGCAAUAUUACGACGU
III
3) UCGUAGCAAUAUUACGUGAU
II

Dear colleague, I would appreciate it if you could identify the bin for UCUAAGCAAUAUUACGAGAC and reply at your convenience.
III

# bin label for UGACAGCAAUAUUACGAGUU
I

Field: class (self-splicing fitness (ln)) — entry: UUACAGCAAUAUUACGUGCA
III

Record UACUAGCAAUAUUACGGAGU — which class?
I

Please indicate the class for UAACAGCAAUAUUACGGCAU based on its self-splicing fitness (ln).
III

---

Experiment: self-splicing fitness, log relative to wild type (ln ratio); higher = more splicing; Tetrahymena group I intron in knt gene, E. coli kanamycin selection, DiMSum; sequences stand for … in CUCUCU…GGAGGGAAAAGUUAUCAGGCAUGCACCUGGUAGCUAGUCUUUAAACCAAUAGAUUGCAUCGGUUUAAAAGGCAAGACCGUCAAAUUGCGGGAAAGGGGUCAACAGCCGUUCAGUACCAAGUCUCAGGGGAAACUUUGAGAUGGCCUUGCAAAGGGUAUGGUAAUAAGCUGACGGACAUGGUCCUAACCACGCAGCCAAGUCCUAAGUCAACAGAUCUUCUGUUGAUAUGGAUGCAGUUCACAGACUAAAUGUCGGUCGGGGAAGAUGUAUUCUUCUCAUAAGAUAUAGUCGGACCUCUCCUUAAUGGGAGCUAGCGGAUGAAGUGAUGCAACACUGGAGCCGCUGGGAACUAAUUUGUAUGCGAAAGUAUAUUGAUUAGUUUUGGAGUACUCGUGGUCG
Conditions: 37 °C
measuredParameter: self-splicing fitness (ln)

1) UAAAAGCAAUAUUACGGGUU
-1.48
2) AUCCAGCAAUAUUACGAUGC
-0.963
3) ACCGAGCAAUAUUACGGUCG
-1.68
4) UUACAGCAAUAUUACGGGAC
-2.07
5) GCAUAGCAAUAUUACGACCA
-0.544
6) AAAUAGCAAUAUUACGACCA
-0.525

Dear colleague, could you please provide self-splicing fitness (ln) for the sequences listed below?
1. UAUAAGCAAUAUUACGUAGG
2. AUUUAGCAAUAUUACGUUCG
3. UGACAGCAAUAUUACGGAAA
4. AAAAAGCAAUAUUACGUCCA
5. CGAUAGCAAUAUUACGCUCA

1: -0.609; 2: -0.0499; 3: -1.75; 4: 0.113; 5: 0.119

I would be grateful if you could provide self-splicing fitness (ln) for each of the following entries.
1. CAGCAGCAAUAUUACGAGCG
2. GGCGAGCAAUAUUACGUAAG
3. UCAGAGCAAUAUUACGACAC
4. GAACAGCAAUAUUACGCGUA
5. GAUCAGCAAUAUUACGCUCA

1: -0.0622; 2: -1.39; 3: -0.191; 4: -0.411; 5: -0.611

---

Assay: self-splicing fitness, log relative to wild type (ln ratio); higher = more splicing; Tetrahymena group I intron in knt gene, E. coli kanamycin selection, DiMSum; sequences stand for … in CUCUCU…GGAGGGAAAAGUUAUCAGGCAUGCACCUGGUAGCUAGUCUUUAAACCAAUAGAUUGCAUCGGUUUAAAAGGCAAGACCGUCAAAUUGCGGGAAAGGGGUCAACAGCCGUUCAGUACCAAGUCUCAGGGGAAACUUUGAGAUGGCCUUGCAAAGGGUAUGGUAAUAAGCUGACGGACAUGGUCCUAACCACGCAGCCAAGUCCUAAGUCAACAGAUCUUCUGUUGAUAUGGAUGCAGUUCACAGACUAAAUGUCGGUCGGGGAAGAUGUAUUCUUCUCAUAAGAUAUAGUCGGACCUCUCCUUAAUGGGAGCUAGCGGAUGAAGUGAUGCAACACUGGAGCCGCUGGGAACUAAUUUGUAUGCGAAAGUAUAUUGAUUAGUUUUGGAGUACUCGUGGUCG
Settings: 30 °C
measuredParameter: self-splicing fitness (ln)
Numbers only.

// solved cases for self-splicing fitness (ln) follow
1) CUUAAGCAAUAUUACGGUAU
-4.7
2) GUCAAGCAAUAUUACGGGUG
-4.19
3) GUCGAGCAAUAUUACGAAAG
-2.57
4) UCUUAGCAAUAUUACGGUGG
-1.18
5) AUCUAGCAAUAUUACGGCCG
-1.43
6) AGUCAGCAAUAUUACGGUUG
-2.76

Give self-splicing fitness (ln) for all sequences that follow.
1. UGGCAGCAAUAUUACGUGUG
2. GAUCAGCAAUAUUACGAAAA

1. -0.896
2. -0.449

---

Assay: self-splicing fitness, log relative to wild type (ln ratio); higher = more splicing; Tetrahymena group I intron in knt gene, E. coli kanamycin selection, DiMSum; sequences stand for … in CUCUCU…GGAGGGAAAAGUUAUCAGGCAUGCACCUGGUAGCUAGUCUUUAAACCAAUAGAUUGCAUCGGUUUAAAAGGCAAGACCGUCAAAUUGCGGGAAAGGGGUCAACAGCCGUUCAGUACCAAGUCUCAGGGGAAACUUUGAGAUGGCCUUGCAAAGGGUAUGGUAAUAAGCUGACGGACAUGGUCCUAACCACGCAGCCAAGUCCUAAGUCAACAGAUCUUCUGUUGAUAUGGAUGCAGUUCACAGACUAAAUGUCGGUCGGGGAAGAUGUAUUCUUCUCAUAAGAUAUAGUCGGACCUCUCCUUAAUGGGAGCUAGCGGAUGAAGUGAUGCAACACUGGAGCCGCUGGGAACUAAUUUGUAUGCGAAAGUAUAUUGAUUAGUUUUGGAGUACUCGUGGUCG
Details: 37 °C
Record form. Attribute: self-splicing fitness (ln). Fill in for each entry.
Answers are plain numbers.

1) CUUAAGCAAUAUUACGAUGG
-0.43
2) AGUCAGCAAUAUUACGGAUU
-1.42

Below is a list of sequences. For each, state its recorded self-splicing fitness (ln).
1. GUACAGCAAUAUUACGAACA
2. AAGCAGCAAUAUUACGCGAA
3. GCGCAGCAAUAUUACGUCAC
4. GCAGAGCAAUAUUACGGGUG

-0.736
-1.2
-1.65
-1.82

Hey, quick one: what's self-splicing fitness (ln) for each of these?
1. GCCCAGCAAUAUUACGCUCC
2. AGCCAGCAAUAUUACGCCGA
3. GCGAAGCAAUAUUACGAUUC

-0.675
-0.449
-0.598

Each sequence below has a reported value. Please supply its self-splicing fitness (ln).
1. CUCAAGCAAUAUUACGUAGA
2. GGAAAGCAAUAUUACGGUGG

1: -1.53; 2: -1.53

Please look at the items below and tell me self-splicing fitness (ln) for each one, in order.
1. GUAAAGCAAUAUUACGAACG
2. GACGAGCAAUAUUACGGUUG
3. GAACAGCAAUAUUACGGUAG
4. UCCAAGCAAUAUUACGAUUU
5. UGUUAGCAAUAUUACGUGGA

-0.132
-1.76
-1.87
-2.71
-1.62

---

Assay: self-splicing fitness, log relative to wild type (ln ratio); higher = more splicing; Tetrahymena group I intron in knt gene, E. coli kanamycin selection, DiMSum; sequences stand for … in CUCUCU…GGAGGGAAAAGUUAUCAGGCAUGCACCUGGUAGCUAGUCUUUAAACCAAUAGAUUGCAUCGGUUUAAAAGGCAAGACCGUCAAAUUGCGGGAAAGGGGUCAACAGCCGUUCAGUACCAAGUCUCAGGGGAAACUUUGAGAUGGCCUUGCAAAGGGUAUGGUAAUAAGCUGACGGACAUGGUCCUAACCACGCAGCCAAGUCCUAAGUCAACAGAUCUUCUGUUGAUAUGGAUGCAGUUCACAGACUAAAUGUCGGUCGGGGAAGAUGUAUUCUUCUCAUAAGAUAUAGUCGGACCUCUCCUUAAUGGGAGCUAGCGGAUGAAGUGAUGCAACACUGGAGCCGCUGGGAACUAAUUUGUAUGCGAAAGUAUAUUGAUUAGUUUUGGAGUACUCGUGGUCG
Conditions: 30 °C
measuredParameter: self-splicing fitness (ln)
One number for each entry.

Illustrative cases are given below, each with its answer.
1) CAGCAGCAAUAUUACGCUGU
-2.84
2) GUUCAGCAAUAUUACGCGGU
-1.52
3) UGUGAGCAAUAUUACGUCGG
-2.11
4) UAUUAGCAAUAUUACGACUC
-2.24
5) UACAAGCAAUAUUACGGCUG
-0.22

Value sought for every listed sequence: self-splicing fitness (ln).
1. AUGCAGCAAUAUUACGCUAG
2. UUGCAGCAAUAUUACGGACC
3. GACAAGCAAUAUUACGCAAA
4. UGUGAGCAAUAUUACGAGGG
5. GAUGAGCAAUAUUACGGACU

1: -3.93; 2: -2.34; 3: -2.04; 4: -3.77; 5: -1.79

For each of the items listed, what is its self-splicing fitness (ln)?
1. GAACAGCAAUAUUACGUAUU
2. ACAUAGCAAUAUUACGAUGU
3. GCUGAGCAAUAUUACGCCUG
4. UGGCAGCAAUAUUACGCAUA
5. CUGGAGCAAUAUUACGGUGC

[-1.57, -3.82, -1.28, -0.869, -3.49]

self-splicing fitness (ln) in this record for CGCUAGCAAUAUUACGUCCG : -0.673
